Data credit: patent US8618137B2

# Test system: Phytophthora infestans (the causal agent of tomato late blight)
# Type: in vivo
# SETTINGS: sprayed 17 h after inoculation, test suspension 40 ppm (*), 100 = 100% disease control, 0 = no control
Marks after values point to notes of the source that are not given here.
MEASURE: Test B2 rating (disease control)

INSERT INTO assay_data (compound, result) VALUES
  ('CCC=NOCC(=O)N1CCC(c2nc(C3=NOC(c4c(F)cccc4F)C3)cs2)CC1 (racemic)', '99* %'),
  ('CC1=NN(CC(=O)N2CCC(c3nc(C4=NOC(c5c(F)cccc5F)C4)cs3)CC2)C(C)C1 (stereo not drawn)', '99* %'),
  ('CC(C)=NOCC(=O)N1CCC(c2nc(C(=O)N(C)[C@H](C)c3ccccc3)cs2)CC1', '91* %'),
  ('CN(CC(=O)N1CCC(c2nc(C3=NOC(c4c(F)cccc4F)C3)cs2)CC1)N=CC(F)(F)F (stereo not drawn)', '99* %'),
  ('CC1=NN(CC(=O)N2CCC(c3nc(C4=NOC(c5c(F)cccc5F)C4)cs3)CC2)C(C)(C)C1 (stereo not drawn)', '81* %'),
  ('C[C@H](c1ccccc1)N(C)C(=O)c1csc(C2CCN(C(=O)CON=CC(F)(F)F)CC2)n1', '99* %');

* * *

Test B2 rating (disease control) by entry:
# System: Phytophthora infestans (the causal agent of tomato late blight)
# Format: in vivo
# SETTINGS: sprayed 17 h after inoculation, test suspension 10 ppm, 100 = 100% disease control, 0 = no control
MEASURE: Test B2 rating (disease control) (%)

INSERT INTO assay_data (molecule, measure, numeric_readout) VALUES
  ('CC(=NOCC(=O)N1CCC(c2nc(C3=NOC4(C3)c3ccccc3C(=O)N4C)cs2)CC1)C(F)(F)F (centres unmarked)', 'Test B2 rating (disease control)', 99),
  ('CC(=NOCC(=O)N1CCC(c2nc(C3=NOC(c4c(F)cccc4F)C3)cs2)CC1)C(F)(F)F (racemic)', 'Test B2 rating (disease control)', 99),
  ('CSC(=NOCC(=O)N1CCC(c2nc(C3=NOC(c4c(F)cccc4F)C3)cs2)CC1)C(=O)N(C)C (racemic)', 'Test B2 rating (disease control)', 0),
  ('CC(=NOCC(=O)N1CCC(c2nc(C3=NOC(N4C(=O)c5ccccc5C4=O)C3)cs2)CC1)C(F)(F)F (centres unmarked)', 'Test B2 rating (disease control)', 99),
  ('Cn1c(=O)n(C2CC(c3csc(C4CCN(C(=O)CON=CC(F)(F)F)CC4)n3)=NO2)c2ccccc21 (centres unmarked)', 'Test B2 rating (disease control)', 99),
  ('O=C(CON=CC(F)(F)F)N1CCC(c2nc(C3=NOC4(CCc5ccccc54)C3)cs2)CC1 (centres unmarked)', 'Test B2 rating (disease control)', 99),
  ('CC(CC(F)(F)F)=NOCC(=O)N1CCC(c2nc(C3=NOC(c4c(F)cccc4F)C3)cs2)CC1 (racemic)', 'Test B2 rating (disease control)', 99),
  ('CC(=NOCC(=O)N1CCC(c2nc(C3=NOC(c4ccccc4C#N)C3)cs2)CC1)C(F)(F)F (centres unmarked)', 'Test B2 rating (disease control)', 99),
  ('CC(C)=NOCC(=O)N1CCC(c2nc(C3=NOC(c4ccccc4C)C3)cs2)CC1 (racemic)', 'Test B2 rating (disease control)', 88),
  ('N#Cc1ccccc1C1CC(c2csc(C3CCN(C(=O)CON=CC(F)(F)F)CC3)n2)=NO1 (racemic)', 'Test B2 rating (disease control)', 99),
  ('CSC(C)=NOCC(=O)N1CCC(c2nc(C3=NOC(c4c(F)cccc4F)C3)cs2)CC1 (racemic)', 'Test B2 rating (disease control)', 0),
  ('CC(=NOCC(=O)N1CCC(c2nc(C3=NOC(n4c(=O)oc5ccccc54)C3)cs2)CC1)C(F)(F)F (centres unmarked)', 'Test B2 rating (disease control)', 99),
  ('CCC(C)=NOCC(=O)N1CCC(c2nc(C3=NOC(c4c(F)cccc4F)C3)cs2)CC1 (racemic)', 'Test B2 rating (disease control)', 99),
  ('O=C(CON=CC(F)(F)F)N1CCC(c2nc(C3=NOC(c4c(F)cccc4F)C3)cs2)CC1 (centres unmarked)', 'Test B2 rating (disease control)', 99),
  ('CN1C(=O)c2ccccc2C12CC(c1csc(C3CCN(C(=O)CON=CC(F)(F)F)CC3)n1)=NO2 (centres unmarked)', 'Test B2 rating (disease control)', 99),
  ('CCCC=NOCC(=O)N1CCC(c2nc(C3=NOC(c4c(F)cccc4F)C3)cs2)CC1 (racemic)', 'Test B2 rating (disease control)', 88),
  ('CC(=NOCC(=O)N1CCC(c2nc(C3=NOC(n4c(=O)n(C)c5ccccc54)C3)cs2)CC1)C(F)(F)F (centres unmarked)', 'Test B2 rating (disease control)', 99),
  ('CCC(=NOCC(=O)N1CCC(c2nc(C3=NOC(c4c(F)cccc4F)C3)cs2)CC1)C(F)(F)F (racemic)', 'Test B2 rating (disease control)', 83),
  ('N#CC(C#N)=NOCC(=O)N1CCC(c2nc(C3=NOC(c4c(F)cccc4F)C3)cs2)CC1 (centres unmarked)', 'Test B2 rating (disease control)', 99),
  ('O=C(CONC(=O)C(F)(F)F)N1CCC(c2nc(C3=NOC(c4c(F)cccc4F)C3)cs2)CC1 (centres unmarked)', 'Test B2 rating (disease control)', 90),
  ('CC(C)=NOCC(=O)N1CCC(c2nc(C3=NOC4(CCc5ccccc54)C3)cs2)CC1 (centres unmarked)', 'Test B2 rating (disease control)', 99),
  ('O=C(CON=C1CCCC1)N1CCC(c2nc(C3=NOC(c4c(F)cccc4F)C3)cs2)CC1 (centres unmarked)', 'Test B2 rating (disease control)', 98),
  ('CC(C)=NOCC(=O)N1CCC(c2nc(C3=NOC(c4ccccc4C#N)C3)cs2)CC1 (centres unmarked)', 'Test B2 rating (disease control)', 99),
  ('CC(C)=NOCC(=O)N1CCC(c2nc(C3=NOC(N4C(=O)c5ccccc5C4=O)C3)cs2)CC1 (centres unmarked)', 'Test B2 rating (disease control)', 99),
  ('CC=NOCC(=O)N1CCC(c2nc(C3=NOC(c4c(F)cccc4F)C3)cs2)CC1 (racemic)', 'Test B2 rating (disease control)', 99),
  ('O=C(CON=CC(Cl)(Cl)Cl)N1CCC(c2nc(C3=NOC(c4c(F)cccc4F)C3)cs2)CC1 (racemic)', 'Test B2 rating (disease control)', 47);
